Readings of IC50 for the listed molecules
# assayTarget: 15-PGDH enzyme (Homo sapiens (Human), UniProt P15428)
# Sequence (P15428 whole entry): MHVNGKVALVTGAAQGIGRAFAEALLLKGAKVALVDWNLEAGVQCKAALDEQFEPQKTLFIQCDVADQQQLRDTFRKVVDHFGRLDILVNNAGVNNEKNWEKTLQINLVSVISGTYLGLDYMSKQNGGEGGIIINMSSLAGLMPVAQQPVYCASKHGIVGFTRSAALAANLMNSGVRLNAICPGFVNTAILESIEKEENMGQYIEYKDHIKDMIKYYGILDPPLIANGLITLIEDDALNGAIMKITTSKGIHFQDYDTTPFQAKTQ
# assayProtocol: Detection of activity of 15-PGDH (enzyme inhibition, NADH fluorescence, PGF2α/β-NAD substrates)
# Type: biochemical
# testContext: inhibitory activity against 15-PGDH enzyme; class symbols; read-out: IC50
testReadout: IC50

                                   molecule  testreadout  reportedmeasurement
0  Nc1c(C(=O)N2CCCCC2)sc2nc(-c3ccc4ccccc4n3)n3ccnc3c12 [Example 20]         IC50          10 to 25 nM
1  CC(C)c1c(C(=O)N2CCCCC2)sc2nc(-c3ccccc3)n3ccnc3c12 [Example 23]         IC50           3 to 10 nM
2  Nc1c(C(=O)N2CCCCC2)sc2nc(-c3nccs3)n3ccnc3c12 [Example 19]         IC50          10 to 25 nM
3  Cc1c(C(=O)N2CCCCC2)sc2nc(-c3ccccc3)n3ccnc3c12 [Example 13]         IC50           3 to 10 nM
4  O=C(c1cc2c(nc(-c3ccccc3)n3ccnc23)s1)N1CCCCC1 [Example 18]         IC50          10 to 25 nM

* * *

# assayTarget: 15-PGDH enzyme (Homo sapiens (Human), UniProt P15428)
# assayProtocol: Detection of activity of 15-PGDH (enzyme inhibition, NADH fluorescence, PGF2α/β-NAD substrates)
# Assay type: biochemical
# testContext: inhibitory activity against 15-PGDH enzyme; class symbols; read-out: IC50
testReadout: IC50

                                 entrysmiles                               assaytarget  testreadout  reportedmeasurement
 0  Nc1c(C(=O)N2CCCC2)sc2nc(-c3ccccc3)n3ccnc3c12  15-PGDH enzyme (Homo sapiens (Human), UniProt P15428)         IC50          25 to 50 nM
 1  O=C(c1sc2nc(-c3ccccc3)n3ccnc3c2c1C(F)(F)F)N1CCCCC1  15-PGDH enzyme (Homo sapiens (Human), UniProt P15428)         IC50           3 to 10 nM
 2  O=C(c1sc2nc(-c3ccccc3)n3ccnc3c2c1C1CC1)N1CCCCC1  15-PGDH enzyme (Homo sapiens (Human), UniProt P15428)         IC50           3 to 10 nM
 3  COc1c(C(=O)N2CCCCC2)sc2nc(-c3ccccc3)n3ccnc3c12  15-PGDH enzyme (Homo sapiens (Human), UniProt P15428)         IC50          10 to 25 nM
 4  Nc1c(C(=O)N2CCCCC2)sc2nc(-c3cnccn3)n3ccnc3c12  15-PGDH enzyme (Homo sapiens (Human), UniProt P15428)         IC50               < 3 nM
 5  O=C(c1sc2nc(-c3ccccc3)n3ccnc3c2c1I)N1CCCCC1  15-PGDH enzyme (Homo sapiens (Human), UniProt P15428)         IC50               < 3 nM
 6  Nc1c(C(=O)N2CCC(F)CC2)sc2nc(-c3ccccc3)n3cc(C(F)(F)F)nc3c12  15-PGDH enzyme (Homo sapiens (Human), UniProt P15428)         IC50           3 to 10 nM
 7  Nc1c(C(=O)N2CCC(F)CC2)sc2nc(-c3ccccc3)n3ccnc3c12  15-PGDH enzyme (Homo sapiens (Human), UniProt P15428)         IC50               < 3 nM
 8  Nc1c(C(=O)N2CCCCC2)sc2nc(-c3ccccc3)n3cnnc3c12  15-PGDH enzyme (Homo sapiens (Human), UniProt P15428)         IC50           3 to 10 nM
 9  Cn1ccc2cc(-c3nc4sc(C(=O)N5CCCCC5)c(N)c4c4nccn34)ccc2c1=O  15-PGDH enzyme (Homo sapiens (Human), UniProt P15428)         IC50               < 3 nM
10  CN1Cc2cc(-c3nc4sc(C(=O)N5CCCCC5)c(N)c4c4nccn34)ccc2C1=O  15-PGDH enzyme (Homo sapiens (Human), UniProt P15428)         IC50               < 3 nM

* * *

# assayTarget: 15-PGDH enzyme (Homo sapiens (Human), UniProt P15428)
# assayProtocol: Detection of activity of 15-PGDH (enzyme inhibition, NADH fluorescence, PGF2α/β-NAD substrates)
# Assay type: biochemical
# testContext: inhibitory activity against 15-PGDH enzyme; class symbols; read-out: IC50
pIC50: −log10 of the molar value.
testReadout: pIC50

In [3]: df
Out[3]:
                                   compound  reportedmeasurement
0  Nc1c(C(=O)N2CCC(F)(F)CC2)sc2nc(-c3ccccc3)n3ccnc3c12 [Example 8]         8.00 to 8.52
1  Nc1c(C(=O)N2CCC(F)CC2)sc2c1C1=NCCN1C(c1ccccc1)=N2 [Compound 8]         7.60 to 8.00
2  Nc1c(C(=O)N2CCCCC2)sc2nc(-c3ccccn3)n3ccnc3c12 [Example 10]         8.00 to 8.52
3  Nc1c(C(=O)N2CCCCC2)sc2nc(-c3ccncc3)n3ccnc3c12 [Example 3]               > 8.52
4  Nc1c(C(=O)N2CCCCC2)sc2nc(-c3cccnc3)n3ccnc3c12 [Example 15]               > 8.52
5  Cc1cn2c(-c3ccccc3)nc3sc(C(=O)N4CCC(F)CC4)c(N)c3c2n1 [Example 9]         8.00 to 8.52
6  CCN(CC)C(=O)c1sc2nc(-c3ccccc3)n3ccnc3c2c1N [Example 16]         7.30 to 7.60
7  Nc1c(C(=O)N2CCCCC2)sc2nc(-c3ccccc3)n3ccnc3c12 [Example 7]               > 8.52
8  N#Cc1c(C(=O)N2CCCCC2)sc2nc(-c3ccccc3)n3ccnc3c12 [Example 22]         8.00 to 8.52

* * *

# assayTarget: 15-PGDH enzyme (Homo sapiens (Human), UniProt P15428)
# assayProtocol: Detection of activity of 15-PGDH (enzyme inhibition, NADH fluorescence, PGF2α/β-NAD substrates)
# Format: biochemical
# testContext: stated in text as bounds; read-out: IC50 value of the inhibitory activity against 15-PGDH enzyme
testReadout: IC50

>>> df
                                entrysmiles                               assaytarget  reportedmeasurement
0  Nc1c(C(=O)N2CCC(F)CC2)sc2nc(-c3ccccc3)n3ccnc3c12  15-PGDH enzyme (Homo sapiens (Human), UniProt P15428)             < 1.5 nM
